- PROCEDURE_TEXT: small-molecule microarray binders of probe aXIP, primary screen, biochemical, NeuroSMM set, 635/667 nm fluorescence (AID 1119);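 note: probe is the protein aXip251-270 applied at 1 µg/mL to compound-printed slides; binding of probe to printed compounds measured as 667 nm fluorescence plus signal to noise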
- CONDITIONS_USED: higher = more signal, called active from +8 up or from −8 down
Give measured composite Z-score for each item. Keep answers brief.
Numbers only.

INSERT INTO results (molecule, readout_name, data_value) VALUES
  ('COCCOC(=O)N1C(=O)[C@@]2(c3cc(C#Cc4ccc(OC)cc4)ccc31)[C@H](c1ccc(O)cc1)N1[C@H](c3ccccc3)[C@H](c3ccccc3)OC(=O)[C@H]1[C@@H]2C(N)=O', 'composite Z-score', 0.0583),
  ('C[N+](C)(C)CCCCCCNC(=O)[C@@H]1C[C@@H]2C(=O)N3CCC[C@H]3C(=O)N2[C@@H]1c1cccc(OCCO)c1', 'composite Z-score', 0.372),
  ('CC(C)[C@@H](OCc1ccccc1)[C@H](C)C=NO[C@H](C)c1cn([C@H](CO)Cc2ccccc2)nn1', 'composite Z-score', 0.0599);

Quick batch: composite Z-score for everything below.
1. CCCNC(=O)OC[C@H]1O[C@H](CCON=C[C@@H](OC)[C@H](C)C=CCC(=O)OC)C=C[C@@H]1Oc1ccc(OC)cc1
2. CCCNC(=O)OC[C@H]1O[C@H](CCON=CC[C@@H]2C=C[C@H](OC(C)=O)[C@@H](COC(C)=O)O2)C=C[C@@H]1Oc1ccc(OC)cc1
3. CC(=O)C[C@H](O)[C@@H](NC(=O)OC(C)(C)C)C(C)C
4. CC(C)N1CC=CC23O[C@@H]4C=CCCOC(=O)C4[C@H]2C(=O)N(CCCCCCO)[C@@H]3C1=O (some centres undefined)
5. COCC1=C2[C@@H](CCc3ccccc3)OB(O)C[C@@H]2n2c(=O)n(-c3ccccc3)c(=O)n2C1
6. COCCNC(=O)OCC1CCCC2(CC(OC(=O)NCCc3ccc(F)cc3)CC(CCC(=O)N[C@@H](C)C(=O)OC)O2)O1 (some centres undefined)

1: -0.431; 2: -0.263; 3: -0.24; 4: 0.0157; 5: -0.532; 6: -0.126

====

- MEASURED_ON: Carbonic anhydrase 2 (Homo sapiens) (UniProt P00918)
- PROCEDURE_TEXT: CAII small-molecule binders, profiling panel, biochemical, small-molecule microarray, Alexa647-labelled CAII (AID 1122)
- CONDITIONS_USED: CAII-A647 binding fluorescence, higher = more signal
READOUT_NAME: composite z-score

Observe how each entry below is paired with its result.
INSERT INTO assay_data (molecule, readout_name, data_value) VALUES
  ('CO[C@@H]1COC(=O)CCC[C@@H](C)[C@H](OC)COC(=O)[C@H](Cc2ccccc2)NC(=O)CC=C[C@H]1C', 'composite z-score', -0.571),
  ('C[C@H](c1ccccc1)N1C(=O)[C@H]2[C@@H]3C(=CC[C@H]2C1=O)C(=O)[C@H]1O[C@H]1[C@H]3O', 'composite z-score', -0.182),
  ('CCN(CC)c1ccc(N2CC=CC34O[C@@H]5/C=C\CCC(C)OC(=O)C5[C@H]3C(=O)N(CCCO)[C@@H]4C2=O)cc1 (stereo partly specified)', 'composite z-score', 0.868),
  ('O=C1CCCC=C1C(O)CCOCc1ccccc1 (stereo unspecified)', 'composite z-score', -0.0262),
  ('O=C(NN=C1C[C@@H](O)[C@@H](O)[C@@H]2[C@@H]3C(=O)N(c4cccc(Oc5ccccc5)c4)C(=O)[C@@H]3CC[C@@H]12)OCc1ccccc1', 'composite z-score', -0.249);

Respectfully, I request composite z-score for each entry included below.
1. CCCNC(=O)[C@@H]1c2ccccc2C(=O)N(c2ccc(C)cn2)[C@H]1c1ccc(CO)cc1
2. O=C(CS)NCCCCCNC(=O)[C@H]1C[C@H]2C(=O)N3CCC[C@H]3C(=O)N2[C@H]1c1cccc(OCCO)c1
3. C[C@@H]1C=CCC(=O)OC[C@H](C)C(=O)OC[C@H]2O[C@H]1C=C[C@H]2O
4. CS(=O)(=O)CCOC(=O)C1=CC(CCCO)=CC(c2cccs2)N(Cc2cccc(OC(F)(F)F)c2)C=C1C(=O)OCCS(C)(=O)=O (stereo unspecified)
5. COC(=O)C1=C(C)[C@@H](O)[C@@H](C)[C@H](c2c(OC)c(OC)c(C)c(OC)c2OC)O1

[0.769, 0.46, 0.116, 0.809, 0.298]

====

Exercise: state measured composite z-score for each of the compounds provided.
- MEASURED_ON: Pro-neuregulin-1, membrane-bound isoform (Homo sapiens)
- PROCEDURE_TEXT: NRG1 binders on small-molecule microarrays, primary screen, psychiatric disease protein project, biochemical, small-molecule microarray, fluorescence 635/667 (AID 1075);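 note: score combines 667 nm spot fluorescence with signal to noise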
- CONDITIONS_USED: NRG1 binding, 635 nm fluorescence, higher = more signal
One number for each entry.

INSERT INTO assay_data (compound, data_value) VALUES
  ('CC1CC/C=C\[C@H]2OC34C=CCN(C(C)C)C(=O)[C@H]3N(CCCO)C(=O)[C@@H]4C2C(=O)O1 (stereo not given in full)', 1.19),
  ('C[N+](C)(C)CCCCCCNC(=O)[C@@H]1C[C@@H]2C(=O)N3CCC[C@H]3C(=O)N2[C@@H]1c1cccc(OCCO)c1', 0.747),
  ('COC(=O)[C@@]1(Cc2ccccc2)[C@H]2c3cc(C(=O)N4CCCC4)n(Cc4ccccn4)c3C[C@H]2CN1C(=O)c1ccccc1', 2.18),
  ('COC(=O)c1c(CC[C@@H](CO)NC(=O)N[C@H](Cc2ccccc2)Cn2cc(-c3ccccc3N)nn2)oc(C(C)=O)c1C(=O)OC', 0.939),
  ('COc1ccc(OC[C@H]2Cc3c(-c4ccccc4)nc4c(c3CO2)CN(CCOc2ccccc2)CC4)cc1', 0.679);

Could I get composite z-score for every one of these entries?
1. COc1ccc(O[C@H]2C=C[C@@H](c3ccccc3)O[C@@H]2COC(=O)CCC(C)=NOCC[C@@H]2C=C[C@H](OC(C)=O)[C@@H](COC(C)=O)O2)cc1
2. C=CC[C@@H]1C=C[C@H](ON=C(C)CCN2CCc3nc(CC)c(CC)cc3C2)[C@@H](CO)O1
3. C[C@H](c1ccccc1)N1C(=O)[C@H]2[C@@H]3C(=CC[C@H]2C1=O)C(=O)[C@H]1O[C@H]1[C@H]3O
4. O=C1O[C@@H](c2ccccc2)[C@@H](c2ccccc2)N2[C@@H](c3ccc(O)cc3)[C@]3(C(=O)Nc4ccccc43)[C@@H](C(=O)O)[C@H]12
5. COc1ccc([Si](C)(C)[C@H]2[C@H](CC(=O)N3CCC[C@H]3CO)O[C@@]3(C(=O)N(Cc4cccc(N5C(=O)COc6ccccc65)c4)c4ccccc43)[C@@H]2C)cc1
6. CCOC(=O)[C@H](Cc1ccccc1)NC(=O)CCC1CC(OC(=O)NCc2ccc3c(c2)OCO3)CC2(CCCC(COC(=O)NCc3cccc(C(F)(F)F)c3)O2)O1 (stereo not given in full)

1. 0.0028
2. -0.21
3. -0.198
4. 1.67
5. 0.563
6. 0.0527

Need composite z-score for each of these compounds.
1. CC(C)N1CC=CC23O[C@@H]4C=CCCOC(=O)C4[C@H]2C(=O)N(CCCCCCO)[C@@H]3C1=O (stereo not given in full)
2. COc1ccc(-c2ccc3c(n2)CCCN3CC(O)CN2CCCc3nc(C)c(C)cc32)cc1 (stereo not given)
3. CN1C(=O)C2C=CC(C(O)C(c3ccccc3)c3ccccc3)N(NC(=O)OC(C)(C)C)C2C1=O (stereo not given)
4. C=C(CCCC)C(=O)CC[C@@H](OC(C)=O)c1cccc(OCCO)c1

1.2
0.641
1.99
0.25

====

- Test system: XIP peptide (Xip251-270)
- PROCEDURE_TEXT: small-molecule binders of XIP peptide, primary screen, biochemical, small-molecule microarray, fluorescence 635/667 nm, 0.5 µg/mL protein (AID 1183)
- CONDITIONS_USED: small-molecule microarray binding, fluorescence 635 nm; higher = more signal
Please respond with reported composite z-score for every item in the list.
Give bare numbers.

Worked cases, composite z-score given:
INSERT INTO results (molecule, data_value) VALUES
  ('CO[C@@H]1COC(=O)[C@H](C)NC(=O)[C@@H](C)COC(=O)CCC[C@H]1C', 0.652),
  ('O=C1[C@H]2[C@H]3[C@H](O)[C@H](O)CC(=NO[C@@H]4O[C@H](CO)[C@@H](O)[C@H](O)[C@H]4O)[C@H]3CC[C@H]2C(=O)N1Cc1ccc2c(c1)OCO2', 0.0812),
  ('COc1ccc(-c2ccc3c(n2)CCCN3CC(O)CN2CCCc3nc(C)c(C)cc32)cc1 (centres undefined)', 0.79),
  ('C[C@H](c1ccccc1)N1C(=O)[C@H]2[C@@H]3C(=CC[C@H]2C1=O)C(=O)[C@H]1O[C@H]1[C@H]3O', 0.008),
  ('CC(C)=NOCc1ccc(-c2cc(-c3ccccc3)no2)cc1', -0.0722),
  ('O=C(NN=C1C[C@@H](O)[C@@H](O)[C@@H]2[C@@H]3C(=O)N(c4cccc(Oc5ccccc5)c4)C(=O)[C@@H]3CC[C@@H]12)OCc1ccccc1', 0.381),
  ('Cc1cc2c(nc1C)CCCN2CC(O)CN1CCN(C)CC1 (centres undefined)', 0.362),
  ('CC(C)CON=C1C[C@@H](O)[C@@H](O)[C@@H]2[C@@H]3C(=O)N([C@@H](C)c4ccccc4)C(=O)[C@@H]3CC[C@H]12', 0.402);

Consider the following items and state reported composite z-score for each.
1. COc1ccc(O[C@H]2C=C[C@@H](c3ccccc3)O[C@@H]2COC(=O)CCC(C)=NOCC[C@@H]2C=C[C@H](OC(C)=O)[C@@H](COC(C)=O)O2)cc1
2. COC(=O)[C@H](C)NC(=O)CCC1CC(OC(=O)NCCc2ccc(F)cc2)CC2(CCCC(COC(=O)NCC(c3ccccc3)c3ccccc3)O2)O1 (some centres undefined)
3. CC(C)(C)N1C(=O)[C@H]2[C@H]3[C@H](O)[C@H](O)CC(=NO[C@@H]4O[C@H](CO)[C@@H](O)[C@H](O)[C@H]4O)[C@@H]3CC[C@H]2C1=O

0.0553
0.577
0.26

Answer for every listed entry: what is its composite z-score? The entries follow.
1. CCCCC(=C=CC[C@H](O)c1ccccc1OCCO)C[C@H](O)COCc1ccccc1
2. O=C1[C@H]2[C@H]3[C@H](O)[C@H](O)CC(=NOCc4ccccc4)[C@H]3CC[C@H]2C(=O)N1C[C@@H]1CCCO1
3. CCOC(=O)[C@H](CC(C)C)NC(=O)CCC1CC(OC(=O)NCc2cccc3ccccc23)CC2(CCCC(COC(=O)NCCN3CCOCC3)O2)O1 (some centres undefined)

1: -0.765; 2: 0.567; 3: 0.464
